Subject of test: T1, UNK ZnF1-3 (human, UniProt Q9C0B0 31-174)
T1 sequence: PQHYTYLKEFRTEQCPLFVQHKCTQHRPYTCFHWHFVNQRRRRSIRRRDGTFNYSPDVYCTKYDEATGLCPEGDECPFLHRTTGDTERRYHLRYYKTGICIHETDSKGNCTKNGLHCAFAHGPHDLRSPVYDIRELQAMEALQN
Protocol text: nsRBNS (natural sequence RNA bind-n-seq); RBNS binding buffer (assumed for nsRBNS): 25 mM Tris pH 7.5, 150 mM KCl, 3 mM MgCl2, 0.01% Triton X-100, 500 ug/ml BSA, 20 U/ml SUPERase-In, 4 C; UNK is unkempt and MSI1 is Musashi-1; names of the RNAs are library labels; protein concentration not given here; high values mean tight binding
The full ranking holds about 24,000 sequences; the median of “enrichment r” is about 0.99, and the highest 2% start at about 3.7. The list comes from a sample in which the highest values are over-represented; it also holds close analogues and randomly drawn sequences.
Endpoint label: binding signal (enrichment R)
Just the number in enrichment R, nothing appended.

What does the record list as binding signal for chr11:57926588:57926589:+_ENSMUSG00000020515_ENSMUST00000020822|mus_hu|FALSE|FALSE (ssRNA) RNA: GGGAGUUCUACAGUCCGACGAUCGUCAAUCCCUUCCUCUUCAUGCUUCUGAAACUGUAGUCCUGAGUUAGCAAGGAGAUCUAUGGAAUCCUGGGAGUACAUGUCCUCUGUAAGGUUAAAUUUGAAAUUGAACUGCCAAGUAUUCAACAGAGGAUUGAGCAUCA ?
1.01

Moving on to the next binder: chr10:1038552:1038553:+_ENSG00000107937_ENST00000545048|hu_hu|FALSE|FALSE (ssRNA) RNA: GGGAGUUCUACAGUCCGACGAUCCAUAGAACGGAUGAAUAUCAUCCAAUUUGGGGAAAUCUGUUAGAAUUUGUGAAAGUCUAUCAUGGUAAUUCUGUUGAGUAAAUUUGACUUUUCUCAUGUAAAAAUGUCUAAUGCGAUGUACAACAGAGGAUUGAGCAUCA
0.818

Follow-up item: chr11:51934471:51934472:+_ENSMUSG00000020349_ENSMUST00000020608|perfect_dup|motif|central (ssRNA) RNA: GGGAGUUCUACAGUCCGACGAUCGAUUGCAGCUUGGUUACCACAACGAUAACAAUAGUUUGGAGCACUGAAAAUCGUUACGGCAUUCCGGUCAUGGCACCAGUUAUAUCCCUCCAUCACUAGCUGGUGAGCUCUAGACACCAACAACAGAGGAUUGAGCAUCA
1.16
